Data provenance: patent US5476856A

system: histamine-induced contraction of guinea-pig ileum (AntiH1); experiment: Antihistamine activity in guinea-pig ileum (Test 4, AntiH1 act.); assay type: cell-based, Dunkin-Hartley guinea pigs; details: Cavia porcellus; guinea-pig ileum; histamine 5×10^-7 M; 5 min preincubation; read-out: Antihistaminic activity in vitro, Test 4 AntiH1 act. ileum IC50
pIC50: −log10 of the molar value. Where a name gives a salt, the structure may show the parent alone.
Reported pIC50 values are given for each entry in this list.
OUTCOME MEASURE: pIC50

>>> test_value("Clc1ccc2c(c1)CCc1cccnc1C2=C1CCN(Cc2cncc(Br)c2)CC1 [Compound 8, trihydrochloride]")
6.55
>>> test_value("Cc1ccncc1CN1CCC(=C2c3ccc(Cl)cc3CCc3cccnc32)CC1 [Compound 5]")
7.46
>>> test_value("Cc1ncccc1CN1CCC(=C2c3ccc(Cl)cc3CCc3cccnc32)CC1 [Compound 3]")
6.57
>>> test_value("COc1ccc(CN2CCC(=C3c4ccc(Cl)cc4CCc4cccnc43)CC2)cn1 [Compound 9]")
6.42
>>> test_value("O=C(c1cc[n+]([O-])cc1)N1CCC(=C2c3ccc(Cl)cc3CCc3cccnc32)CC1 [Compound 13, reference compound]")
6.68
>>> test_value("Clc1ccc2c(c1)CCc1cccnc1C2=C1CCN(Cc2cccnc2Cl)CC1 [Compound 6]")
6.46
>>> test_value("Cc1ccc(CN2CCC(=C3c4ccc(Cl)cc4CCc4cccnc43)CC2)cn1 [Compound 2]")
7.43
>>> test_value("Cc1cncc(CN2CCC(=C3c4ccc(Cl)cc4CCc4cccnc43)CC2)c1 [Compound 4]")
8.37
